Cited source for all entries: PubChem BioAssay (NCI)

Test system: COLO 205 colon
Test: NCI tumour cell line growth inhibition, 48 h; in the data active = GI50 below about 0.43 µM; inactive = the rest
Possible outcomes: active, inactive

>>> class_label("Cc1cc2nc3c4cc(Cl)ccc4n(CCN(C)C)c3nc2cc1C")
"inactive"
>>> class_label("CCc1c2c(nc3cc4c(cc13)OCO4)-c1cc3c(c(=O)n1C2)COC(=O)[C@]3(O)CC")
"inactive"
>>> class_label("COc1ccc(C(=O)Nc2ncc(Cc3ccc(Cl)cc3)s2)cc1")
"active"
>>> class_label("COc1ccc(-c2nn(-c3cccc(Cl)c3)cc2C2CC(c3ccccc3)=NN2C(C)=O)cc1 (stereo not given)")
"inactive"
>>> class_label("C=CC(=O)N[C@H]1C=C(C)c2c(-c3cnc4ccccc4c3)c3c(N)ncnc3n2C1")
"inactive"

###

System: KM12 colon
Test: NCI tumour cell line growth inhibition, 48 h
# TGI per record follows
Measured Attribute: TGI

>>> result("CCN(CC)CCn1c2cc3c(cc2c(=O)c2cccnc21)OCCO3")
"> 10 µM"
>>> result("C[C@]12OC[C@H](c3ccccc3)N1C(=O)C1[C@H]2CC12SCCS2 (some centres undefined)")
"> 100 µM"
>>> result("Fc1cccc(COc2ccc(Nc3ncncc3C#Cc3ccccc3)cc2Cl)c1")
"> 25 µM"
>>> result("Cc1c(Cl)ccc2c(=O)c3cccc(CC(=O)O)c3oc12")
"> 100 µM"

###

Test system: SN12C renal
Assay: NCI tumour cell line growth inhibition, 48 h
Measured Attribute: TGI (µM)

>>> result("O=C1/C(=C/c2ccc(F)cc2)CCOc2ccc([N+](=O)[O-])cc21")
21
>>> result("COc1cc(C(=O)NC2c3ccccc3-c3ccccc32)c(N)cc1OCc1ccccc1")
48.9
>>> result("CCCCN(CC)c1nc(C)nc2c1c(C)c(C)n2-c1c(C)cc(C)cc1C")
40.9

###

Known TGI of a selection of compounds
Test system: NCI-H226 lung
Test: NCI tumour cell line growth inhibition, 48 h
Measured Attribute: TGI

>>> result("C#Cc1cnc(=O)n(C2CC(O)C(CO)O2)c1 (configuration not stated)")
"> 100 µM"
>>> result("COc1ccc(-c2c(C#N)c(N)n(C3OC(CO)C(O)C(O)C3O)c(=S)c2C#N)cc1 (configuration not stated)")
"> 100 µM"
>>> result("CCn1c(-c2nonc2N)nc2c(C#CCN)ncc(OCCCN)c21")
"> 25 µM"
>>> result("Cc1c(/C=N\\NC(=S)N2CCN(C(=S)N/N=C\\c3c(C)n(C)n(-c4ccccc4)c3=O)CC2)c(=O)n(-c2ccccc2)n1C")
"> 100 µM"
>>> result("CCOC(=O)CCC(NC(=O)c1ccc(OCc2nc3cc(C(F)(F)F)ccc3nc2-c2ccccc2)cc1)C(=O)OCC (configuration not stated)")
"> 100 µM"
>>> result("N#Cc1c(N)[nH]c(=S)c(C#N)c1-c1cccc(Cl)c1")
"> 100 µM"
>>> result("c1cc(-c2cnc(-c3ccc4c(c3)CCCO4)o2)ccn1")
"31.7 µM"

###

Tested on: SF-539 CNS
Experiment: NCI tumour cell line growth inhibition, 48 h
Below, each entry is listed with its recorded TGI.
Measured Attribute: TGI

>>> result("Cc1ccccc1C(C#N)C(=O)C(=O)Nc1nc([N+](=O)[O-])cs1 (stereo not drawn)")
"> 100 µM"
>>> result("Cc1ccc(N=Nc2c3c(c(O)c4ccccc24)CCC(C)(C)O3)cc1")
"> 100 µM"
>>> result("COC(=O)C(C#N)=C1c2ccccc2Oc2ccccc21")
"> 100 µM"

###

Test system: HCT-116 colon
Assay: NCI tumour cell line growth inhibition, 48 h
Attribute: TGI
Measured Attribute: TGI (µM)

>>> result("CCOC(=O)c1cc(=C2\\CCN(CC(C)CC)C2=S)/c(=C(/O)CC)[nH]1 (configuration not stated)")
28.7
>>> result("CN=C(N)N/N=C(\\c1ccccc1)c1ccc(Br)cc1")
3.3
>>> result("COc1ncc(C=C(C#N)C#N)c(OC)n1")
74.9
>>> result("COc1ccc(Nc2c(C#N)c3n(c4ccccc24)c2ccccc2[n+]3C)cc1OC")
7.56

###

System: HCT-15 colon
Assay: NCI tumour cell line growth inhibition, 48 h
# reported TGI; entries follow
Measured Attribute: TGI

>>> result("Cc1cc(=O)cc2sc3c(C)cccc3nc1-2")
"> 100 µM"
>>> result("Cc1ccc(-c2cc(N)n(-c3nc4c([nH]3)c(=O)n(C)c(=O)n4C)n2)cc1")
"18.6 µM"
>>> result("c1sc(NC2=NCCO2)c2c1CCCC2")
"> 100 µM"
>>> result("CCCCCCCCCC[C@@H](O)[C@H]1CC[C@H]([C@H]2CC[C@H]([C@H](O)CCCCCCCCCC[C@@H]3CC(CC(C)=O)C(=O)O3)O2)O1 (stereo partly drawn)")
"> 50 µM"
>>> result("N#Cc1c(-c2cccs2)c2c(=S)[nH]c(=S)[nH]c2[nH]c1=S")
"> 100 µM"
>>> result("CC(C)(C)OC(=O)NCCCCC(NC(=O)OCc1ccccc1)C(N)=O (stereo not drawn)")
"> 100 µM"
>>> result("Cc1c(Cl)cccc1NC(=O)C(=O)C1C(=O)CC(C)(C)CC1=O")
"> 100 µM"
>>> result("CC(C)(C)OC(=O)NC(Cc1ccccc1)C(=O)OCN1C(=O)C2C3C=CC(C2C1=O)C1C2C(=O)N(COC(=O)C(Cc4ccccc4)NC(=O)OC(C)(C)C)C(=O)C2C31 (stereo not drawn)")
"> 100 µM"

###

Listing of recorded TGI by entry.
System: DU-145 prostate
Experiment: NCI tumour cell line growth inhibition, 48 h
Measured Attribute: TGI

>>> result("c1ccc([P+](CCNCCNCC[P+](c2ccccc2)(c2ccccc2)c2ccccc2)(c2ccccc2)c2ccccc2)cc1")
"> 100 µM"
>>> result("N#Cc1c(NC(=O)c2cccc(C(F)(F)F)c2)sc2c1CCC(=O)C2")
"> 100 µM"
>>> result("Nc1n[nH]c2ccc([C@@H]3Nc4ccc5[nH]ncc5c4[C@H]4[C@H]5CCC(C5)[C@H]43)cc12")
"> 28.3 µM"
>>> result("COc1ccc(-c2c(C#N)c(S)n(C3OC(COC(C)=O)C(OC(C)=O)C(OC(C)=O)C3OC(C)=O)c(=O)c2C#N)cc1 (centres undefined)")
"> 100 µM"
>>> result("CCOP(=O)(OCC)[C@H](O)c1ccsc1")
"> 100 µM"
>>> result("COc1ncc(C=C(C#N)C#N)c(OC)n1")
"> 100 µM"
>>> result("CCN(CC)CCn1c2cc3c(cc2c(=O)c2cccnc21)OCCO3")
"> 10 µM"
>>> result("COc1ccc(/C=C/C=C(/C#N)C(N)=S)cc1")
"> 100 µM"
>>> result("CC(=O)NC1C(OCc2ccccc2)OC(CO)C(O)C1OCC(=O)N[C@@H](C)C(=O)N[C@H](CCC(=O)NCCNCCNc1c2ccccc2nc2cccc([N+](=O)[O-])c12)C(N)=O (some centres undefined)")
"> 100 µM"
>>> result("CSc1nc(SC)c2c(CN=[N+]=[N-])c(Br)n(Cc3ccccc3)c2n1")
"> 100 µM"
>>> result("Cc1sc2nc3n(c(=O)c2c1C)N=CN(c1ccccc1)C3")
"> 100 µM"
>>> result("Cc1ccc2c(c1)nc(N)n[n+]2[O-]")
"> 100 µM"
>>> result("O=C1CC(c2ccco2)C2(C(=O)NC(=O)NC2=O)C(c2ccco2)C1 (centres undefined)")
"> 75 µM"
>>> result("Fc1cccc(COc2ccc(Nc3ncncc3C#Cc3ccccc3)cc2Cl)c1")
"> 25 µM"
>>> result("Clc1cc(N/N=C(/c2ccccc2)c2ncccn2)ncn1")
"> 100 µM"
>>> result("N#Cc1c(N)[nH]c(=S)c(C#N)c1-c1cccc(Cl)c1")
"> 100 µM"
>>> result("C=C1C(O)C2CCC(C)(C)C(=O)C2=C(CC(C)C)C12CC2 (centres undefined)")
"> 100 µM"
>>> result("CC12CC(c3ccccc3O1)C(C(=O)Nc1ccc(F)cc1)C(=O)N2 (centres undefined)")
"> 100 µM"
>>> result("O=c1c2ccccc2[nH]c(=S)n1-c1ccc(N=Nc2cccc3c(O)cccc23)cc1")
"> 100 µM"

###

Test system: PC-3 prostate
Test: NCI tumour cell line growth inhibition, 48 h
Where a SMILES comes first, the peptide text is derived from it. The star is where a group is joined. Boc = CC(C)(C)OC(=O)*; OSu = O=C1CCC(=O)N1O*
Measured Attribute: TGI

>>> result("CCOC(=O)c1c(NC(=O)c2ccccc2)sc2c1CCCC2")
"> 100 µM"
>>> result("Cc1ccc(S(=O)(=O)N2CCN3C(=O)c4ccccc4C32c2ccc(F)cc2)cc1 (stereo not drawn)")
"> 100 µM"
>>> result("CC(C)(C)OC(=O)NC(Cc1ccc(O)cc1)C(=O)NC(CCCCN)C(=O)NC(Cc1ccc(O)cc1)C(=O)NC(CCCCN)C(=O)ON1C(=O)CCC1=O (stereo not drawn) (Boc-YKYK-OSu; configuration not given here)")
"> 100 µM"
>>> result("COC1(C(=O)N2Cc3nc(Cl)nc(N[C@H](C)c4cc(N)cc(C(F)(F)F)c4)c3C2)CCOCC1")
"> 91.8 µM"
>>> result("O=C1CC2C=CC(O)C(C1)C2 (stereo not drawn)")
"> 100 µM"
>>> result("COc1cc(C(=O)NC2c3ccccc3-c3ccccc32)c(N)cc1OCc1ccccc1")
"> 66.1 µM"
>>> result("CSc1nc(SC)c2c(CN=[N+]=[N-])c(Br)n(Cc3ccccc3)c2n1")
"> 100 µM"
>>> result("CCCN=C1CC(C)Nc2ccccc2N1 (stereo not drawn)")
"> 100 µM"
>>> result("Nc1nc2ncc(SCc3ccc(C(=O)NC(CCC(=O)O)C(=O)O)cc3)cc2c(=O)[nH]1 (stereo not drawn)")
"> 100 µM"
>>> result("COc1ccc(-c2c(C#N)c(S)n(C3OC(COC(C)=O)C(OC(C)=O)C(OC(C)=O)C3OC(C)=O)c(=O)c2C#N)cc1 (stereo not drawn)")
"> 100 µM"
>>> result("c1sc(NC2=NCCO2)c2c1CCCC2")
"> 100 µM"
>>> result("CC(C)(C)OC(=O)NC(Cc1ccccc1)C(=O)OCN1C(=O)C2C3C=CC(C2C1=O)C1C2C(=O)N(COC(=O)C(Cc4ccccc4)NC(=O)OC(C)(C)C)C(=O)C2C31 (stereo not drawn)")
"> 100 µM"
>>> result("Cc1ccc(N=Nc2c3c(c(O)c4ccccc24)CCC(C)(C)O3)cc1")
"> 100 µM"
>>> result("CC1C(c2cc(C(C)(C)C)c(O)c(C(C)(C)C)c2)c2cc3c(cc2OC1N1CCOCC1)OCO3 (stereo not drawn)")
"31.6 µM"
>>> result("O=C1CC(=O)N(c2ccccc2)N1/C(=C/c1ccccc1)c1ccccc1")
"47.7 µM"
>>> result("C=C1C(=O)O[C@H]2[C@H]1CC/C(CNC(=O)c1c[nH]c3ccc(F)cc13)=C\\CC[C@@]1(C)O[C@@H]21")
"12.1 µM"
>>> result("O=c1[nH]cnc2c(C3OC(CO)C(O)C3O)c[nH]c12 (stereo not drawn)")
"> 100 µM"
>>> result("CCN(CC)CCOC(c1cc(OC)ccc1OC)c1ccc2n1-c1ccccc1OC2 (stereo not drawn)")
"27.4 µM"
>>> result("O=C1/C(=C/c2ccc(F)cc2)CCOc2ccc([N+](=O)[O-])cc21")
"1.64 µM"
>>> result("COc1cc2oc(-c3ccc(O)cc3)c(OC3OC(C)C(O)C(O)C3O)c(=O)c2c(O)c1OC (stereo not drawn)")
"> 100 µM"
>>> result("COc1ccc(C(=O)Nc2ncc(Cc3ccc(Cl)cc3)s2)cc1")
"> 100 µM"
>>> result("O=C(CSc1nc2ccc([N+](=O)[O-])cc2[nH]1)Nc1ccc(F)c(Cl)c1")
"11.6 µM"
>>> result("OCC1CCCC(n2cnc3c(=S)nc[nH]c32)O1 (stereo not drawn)")
"> 100 µM"
